Assay: Cmax in ICR mouse at 10 mg/kg, po measured upto 1440 mins by LC-MS/MS analysis
Format: ADME, organism-based
Set-up: dose 10 mg/kg, time < 1440 min, route po
Settings: in vivo
observedProperty: Cmax

Supply Cmax value. Item: `CN1CC[C@@H](Oc2ccc(F)c(-c3nc4c(o3)C(=O)c3ccccc3C4=O)c2Cl)C1`
4270 ng/mL

Supply Cmax value. Item: `CN1CC[C@@H](Oc2ccc(Cl)c(-c3nc4c(o3)C(=O)c3ccccc3C4=O)c2)C1`
313 ng/mL

###

Test system: NCI-H1975
Experiment: Antiproliferative activity against human NCI-H1975 cells harboring wild type KRAS incubated for 72 hrs by MTT assay
Format: functional, cell-based
Details: NCI-H1975, 72 h
Assign IC50 to each entry below.
Use µM as the unit, but write only the number.

Supply IC50 value. Item: `CN1CC[C@@H](Oc2ccc(Cl)c(-c3nc4c(o3)C(=O)c3ccccc3C4=O)c2)C1`
0.088

Supply IC50 value. Item: `CN1CC[C@@H](Oc2ccc(F)c(-c3nc4c(o3)C(=O)c3ccccc3C4=O)c2Cl)C1`
0.118

Supply IC50 value. Item: `O=C1c2ccccc2C(=O)c2oc(-c3cccnc3)nc21`
0.098

Supply IC50 value. Item: `CN1CC[C@@H](Oc2ccc(Cl)c(-c3nc4c(o3)C(=O)c3ccccc3C4=O)c2F)C1`
0.121
